- Tested on: HER2+ breast cancer cells
- Method Notes: HER2-dependent (anchorage-dependent) proliferation, Table 1
- Type: cell-based, human
Measured Metric: Effect on proliferation of HER2+ breast cancer cells

>  <Molecule>
Cc1ccc(-n2sc3ccccc3c2=O)cc1

>  <Measurement>
reduced

$$$$
>  <Molecule>
CC(C)c1ccc(N2Cc3ccccc3C2=O)cc1

>  <Measurement>
no or low inhibition

$$$$
>  <Molecule>
Cc1ccc(-n2c(=O)c3ccccc3[s+]2[O-])cc1 (centres unmarked)

>  <Measurement>
no or low inhibition

$$$$
>  <Molecule>
O=c1c2ccccc2sn1-c1ccc(Cl)cc1

>  <Measurement>
reduced

$$$$
>  <Molecule>
O=C1c2ccccc2C(=O)N1c1ccccc1 [Analog 4, N‐phenylphtalimide]

>  <Measurement>
no or low inhibition

$$$$

----------
- Target Desc: JMHER2/FERME interaction (biot-JMHER2 peptide and GST-FERME, N-terminal FERM domain of ezrin) (Homo sapiens, UniProt P04626)
- Construct: purchased Proteogenix
- Method Notes: AlphaScreen competition of HER2 juxtamembrane peptide / ezrin FERM domain interaction
- Format: binding
- Experimental Parameters: AlphaScreen, 20 h, compound 0–50 μM, biot-JMHER2 5 nM
Readings of Inhibition of HER2-FERME interaction, % for the listed compounds

>  <Compound>
O=c1c2ccccc2[s+]([O-])n1-c1ccc(Cl)cc1 (stereo not shown)

>  <Inhibition of HER2-FERME interaction, % / %>
100

$$$$
>  <Compound>
Cc1ccc(-n2sc3ccccc3c2=O)cc1

>  <Inhibition of HER2-FERME interaction, % / %>
45.0

$$$$
>  <Compound>
CC(C)c1ccc(N2Cc3ccccc3C2=O)cc1

>  <Inhibition of HER2-FERME interaction, % / %>
49.0

$$$$
>  <Compound>
O=C1c2ccccc2C(=O)N1c1ccccc1 [Analog 4, N‐phenylphtalimide]

>  <Inhibition of HER2-FERME interaction, % / %>
47.3

$$$$
>  <Compound>
O=c1c2ccccc2sn1-c1ccc(C(F)(F)F)cc1

>  <Inhibition of HER2-FERME interaction, % / %>
100

$$$$
>  <Compound>
O=c1c2ccccc2sn1-c1ccc(Cl)cc1

>  <Inhibition of HER2-FERME interaction, % / %>
40.4

$$$$
>  <Compound>
Cc1ccc(-n2c(=O)c3ccccc3[s+]2[O-])cc1 (stereo not shown)

>  <Inhibition of HER2-FERME interaction, % / %>
43.6

$$$$

----------
compounds and their reported log10 EC50
- Target Desc: JMHER2/FERME interaction (biot-JMHER2 peptide and GST-FERME, N-terminal FERM domain of ezrin) (Homo sapiens, UniProt P04626)
- Construct: purchased Proteogenix
- Method Notes: AlphaScreen competition of HER2 juxtamembrane peptide / ezrin FERM domain interaction
- Type: binding
- Experimental Parameters: AlphaScreen, 20 h; read-out: EC50, μM (inhibition of HER2-FERME interaction)
Measured Metric: log10 EC50 (log10 of the value in µM)

>  <Compound>
Cc1ccc(-n2sc3ccccc3c2=O)cc1 [Analog 1]

>  <log10 EC50>
-0.15

$$$$
>  <Compound>
O=c1c2ccccc2[s+]([O-])n1-c1ccc(Cl)cc1 (centres unmarked) [Analog 8]

>  <log10 EC50>
1.98

$$$$
>  <Compound>
O=C1c2ccccc2[Se](=O)N1c1ccccc1 (centres unmarked) [Ebselen oxide, ebselen oxide]

>  <log10 EC50>
-0.20

$$$$
>  <Compound>
Cc1ccc(-n2c(=O)c3ccccc3[s+]2[O-])cc1 (centres unmarked) [Analog 6]

>  <log10 EC50>
0.40

$$$$
>  <Compound>
O=c1c2ccccc2sn1-c1ccc(Cl)cc1 [Analog 2]

>  <log10 EC50>
0.03

$$$$

----------
- Target Desc: JMHER2/FERME interaction (biot-JMHER2 peptide and GST-FERME, N-terminal FERM domain of ezrin) (Homo sapiens, UniProt P04626)
- Construct: purchased Proteogenix
- Method Notes: AlphaScreen competition of HER2 juxtamembrane peptide / ezrin FERM domain interaction
- Format: binding
- Experimental Parameters: compared to ebselen oxide
Measured Metric: Competition with HER2/FERM interaction / binding affinity for JMHER2

>  <Compound>
CC(C)c1ccc(N2Cc3ccccc3C2=O)cc1 [Analog 5, 2‐(4‐isopropyl phenyl)‐1‐isoindolinone]

>  <Measurement>
greater binding affinity

$$$$
>  <Compound>
O=c1c2ccccc2sn1-c1ccc(C(F)(F)F)cc1 [Analog 7]

>  <Measurement>
drastically reduced

$$$$
>  <Compound>
O=c1c2ccccc2sn1-c1ccc(Cl)cc1 [Analog 2]

>  <Measurement>
competed

$$$$
>  <Compound>
Cc1ccc(-n2sc3ccccc3c2=O)cc1 [Analog 1]

>  <Measurement>
competed

$$$$
>  <Compound>
O=C1c2ccccc2C(=O)N1c1ccccc1 [Analog 4, N‐phenylphtalimide]

>  <Measurement>
greater binding affinity

$$$$
>  <Compound>
O=c1c2ccccc2[s+]([O-])n1-c1ccc(Cl)cc1 (stereo not drawn) [Analog 8]

>  <Measurement>
drastically reduced

$$$$

----------
Known pIC50 of a selection of compounds
- Target Desc: JMHER2/FERME interaction (biot-JMHER2 peptide and GST-FERME, N-terminal FERM domain of ezrin) (Homo sapiens)
- Method Notes: AlphaScreen competition of HER2 juxtamembrane peptide / ezrin FERM domain interaction
- Experimental Parameters: AlphaScreen, 20 h
pIC50: −log10 of the molar value.
Measured Metric: pIC50

>  <Compound>
O=c1c2ccccc2[se]n1-c1ccccc1

>  <Measurement>
7.36

$$$$
>  <Compound>
O=C1c2ccccc2[Se](=O)N1c1ccccc1 (centres unmarked) [Ebselen oxide, ebselen oxide]

>  <Measurement>
6.20

$$$$

----------
- Target Desc: HER2 (pY1248) in SKBR3 (Homo sapiens)
- Construct: host or cells: SKBR3
- Sequence (P04626 23-1255): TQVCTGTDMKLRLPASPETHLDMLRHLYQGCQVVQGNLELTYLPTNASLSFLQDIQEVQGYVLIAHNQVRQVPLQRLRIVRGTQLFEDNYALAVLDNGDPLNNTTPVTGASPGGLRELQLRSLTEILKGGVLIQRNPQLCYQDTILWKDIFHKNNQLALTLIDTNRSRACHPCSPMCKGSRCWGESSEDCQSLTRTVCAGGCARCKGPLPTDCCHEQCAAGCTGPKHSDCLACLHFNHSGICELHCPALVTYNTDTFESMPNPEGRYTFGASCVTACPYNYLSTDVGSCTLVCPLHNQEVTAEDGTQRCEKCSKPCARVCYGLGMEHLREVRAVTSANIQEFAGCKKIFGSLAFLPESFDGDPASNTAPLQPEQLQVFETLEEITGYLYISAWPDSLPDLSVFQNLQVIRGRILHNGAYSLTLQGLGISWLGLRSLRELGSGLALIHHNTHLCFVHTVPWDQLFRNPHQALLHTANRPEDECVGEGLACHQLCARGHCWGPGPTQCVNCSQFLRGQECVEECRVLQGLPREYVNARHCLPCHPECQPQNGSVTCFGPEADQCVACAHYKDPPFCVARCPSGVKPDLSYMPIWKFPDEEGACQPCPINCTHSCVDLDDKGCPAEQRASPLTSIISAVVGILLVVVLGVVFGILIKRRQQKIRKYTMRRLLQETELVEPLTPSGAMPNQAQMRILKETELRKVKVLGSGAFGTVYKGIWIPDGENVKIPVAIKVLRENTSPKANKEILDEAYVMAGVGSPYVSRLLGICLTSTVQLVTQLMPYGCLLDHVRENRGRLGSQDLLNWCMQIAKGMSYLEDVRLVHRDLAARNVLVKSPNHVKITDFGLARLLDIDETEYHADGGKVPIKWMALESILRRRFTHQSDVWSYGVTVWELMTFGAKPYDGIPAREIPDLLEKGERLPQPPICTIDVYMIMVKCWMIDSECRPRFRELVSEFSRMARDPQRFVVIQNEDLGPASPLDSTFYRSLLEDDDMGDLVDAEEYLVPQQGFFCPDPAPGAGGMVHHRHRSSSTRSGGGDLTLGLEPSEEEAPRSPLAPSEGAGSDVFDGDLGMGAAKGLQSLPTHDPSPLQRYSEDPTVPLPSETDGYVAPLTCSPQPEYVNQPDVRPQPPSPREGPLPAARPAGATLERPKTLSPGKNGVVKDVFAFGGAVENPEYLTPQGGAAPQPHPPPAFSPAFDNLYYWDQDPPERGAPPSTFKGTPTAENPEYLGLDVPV
- Method Notes: HER2 activation (pY1248-HER2) in SKBR3 cells, western/dot blot
- Type: cell-based
- Experimental Parameters: HER2+ breast cancer cells (SKBR3 in Fig. S1)

>  <Compound>
O=C1c2ccccc2C(=O)N1c1ccccc1 [Analog 4, N‐phenylphtalimide]

>  <Inhibition of HER2 activation/activity>
no or low inhibition

$$$$
>  <Compound>
Cc1ccc(-n2sc3ccccc3c2=O)cc1

>  <Inhibition of HER2 activation/activity>
inhibited

$$$$
>  <Compound>
CC(C)c1ccc(N2Cc3ccccc3C2=O)cc1

>  <Inhibition of HER2 activation/activity>
no or low inhibition

$$$$
>  <Compound>
Cc1ccc(-n2c(=O)c3ccccc3[s+]2[O-])cc1 (centres unmarked)

>  <Inhibition of HER2 activation/activity>
no or low inhibition

$$$$
>  <Compound>
O=c1c2ccccc2sn1-c1ccc(Cl)cc1

>  <Inhibition of HER2 activation/activity>
inhibited

$$$$

----------
- Target Desc: JMHER2/FERME interaction (biot-JMHER2 peptide and GST-FERME, N-terminal FERM domain of ezrin) (Homo sapiens, UniProt P04626)
- Construct: purchased Proteogenix
- Method Notes: AlphaScreen competition of HER2 juxtamembrane peptide / ezrin FERM domain interaction
- Assay type: binding
- Experimental Parameters: AlphaScreen, 20 h; read-out: EC50, μM (inhibition of HER2-FERME interaction)
Below is a list of entries, each paired with its recorded EC50 value.

>  <Compound>
O=c1c2ccccc2[se]n1-c1ccccc1 [Ebselen]

>  <EC50, µM>
0.044

$$$$
>  <Compound>
O=c1c2ccccc2sn1-c1ccc(C(F)(F)F)cc1 [Analog 7]

>  <EC50, µM>
97

$$$$
>  <Compound>
O=C1c2ccccc2C(=O)N1c1ccccc1 [Analog 4, N‐phenylphtalimide]

>  <EC50, µM>
0.003

$$$$
>  <Compound>
CC(C)c1ccc(N2Cc3ccccc3C2=O)cc1 [Analog 5, 2‐(4‐isopropyl phenyl)‐1‐isoindolinone]

>  <EC50, µM>
0.255

$$$$

----------
- Target Desc: HER2 (pY1248) in SKBR3 (Homo sapiens)
- Construct: host or cells: SKBR3
- Method Notes: HER2 activation (pY1248-HER2) in SKBR3 cells, western/dot blot
- Type: cell-based
- Design: concentration or dose not given beside the values
- Experimental Parameters: Table 1; HER2+ breast cancer cells (ebselen oxide value equals SKBR3 48 h)

>  <Compound>
Cc1ccc(-n2sc3ccccc3c2=O)cc1

>  <HER2 inhibition, % (%)>
65.0

$$$$
>  <Compound>
Cc1ccc(-n2c(=O)c3ccccc3[s+]2[O-])cc1 (stereo not shown)

>  <HER2 inhibition, % (%)>
0.2

$$$$
>  <Compound>
CC(C)c1ccc(N2Cc3ccccc3C2=O)cc1

>  <HER2 inhibition, % (%)>
16.3

$$$$
>  <Compound>
O=c1c2ccccc2[se]n1-c1ccccc1

>  <HER2 inhibition, % (%)>
14.4

$$$$
>  <Compound>
O=C1c2ccccc2C(=O)N1c1ccccc1 [Analog 4, N‐phenylphtalimide]

>  <HER2 inhibition, % (%)>
0.0

$$$$
>  <Compound>
O=C1c2ccccc2[Se](=O)N1c1ccccc1 (stereo not shown) [Ebselen oxide, ebselen oxide]

>  <HER2 inhibition, % (%)>
64.2

$$$$
>  <Compound>
O=c1c2ccccc2sn1-c1ccc(Cl)cc1

>  <HER2 inhibition, % (%)>
75.4

$$$$
